Structures can show the parent of a compound that is named as a salt.
propertyName: Ki

Field Ki (system: human α-thrombin (Homo sapiens, UniProt P00734)) for entry Cc1cc(F)cc(CNc2nc(-c3cnn(C(F)F)c3)c3n(c2=O)[C@H](C(=O)NCc2cc4cnccc4[nH]2)CC3)c1 [Compound 215, trifluoroacetate] = > 25 µM

Field Ki (system: human α-thrombin (Homo sapiens, UniProt P00734)) for entry CC[C@H]1C[C@@H](C(=O)NCc2cc3cnccc3[nH]2)n2c1c(Cl)nc(NCc1ccccc1)c2=O [Compound 159] = 10 to 25 µM

Field Ki (system: human α-thrombin (Homo sapiens, UniProt P00734)) for entry O=C(NCc1cc2cnccc2[nH]1)[C@@H]1CCc2c(Cl)nc(NCCC(F)F)c(=O)n21 [Compound 19] = > 25 µM

Field Ki (system: human α-thrombin (Homo sapiens, UniProt P00734)) for entry CCc1cccc(CNc2ncc3n(c2=O)[C@H](C(=O)N[C@H](C)c2ccc(N)nc2)CC3)c1 [Compound 195, trifluoroacetate] = 2.5 to 10 µM

Field Ki (system: human α-thrombin (Homo sapiens, UniProt P00734)) for entry Cc1ccc(CNc2nc(Cl)c3n(c2=O)[C@H](C(=O)NCc2ccc(N)nc2C)CC3)cc1C [Compound 27, trifluoroacetate] = 2.5 to 10 µM

Field Ki (system: human α-thrombin (Homo sapiens, UniProt P00734)) for entry Cc1cc(F)cc(CNc2nc(-c3cnn(C)c3)c3n(c2=O)[C@H](C(=O)NCc2ccc(N)nc2C)CC3)c1 [Compound 174, trifluoroacetate] = > 25 µM

Field Ki (system: human α-thrombin (Homo sapiens, UniProt P00734)) for entry O=C(NCc1cc2c(s1)CNC2)[C@@H]1CCc2cnc(NCc3cccc(-c4ccccc4)c3)c(=O)n21 [Compound 285, trifluoroacetate] = 0.5 to 2.5 µM

###

Could you please report measured pKi for the items listed next?
target: UniProtKB P00734
pKi: −log10 of the molar value. Where a name gives a salt, the structure may show the parent alone.

Just so you know, measured pKi for CC[C@H]1C[C@@H](C(=O)NCc2ccc(N)nc2C)n2c1cnc(NCc1ccccc1)c2=O [Compound 154] came out at > 6.30

Just so you know, measured pKi for O=C(NCc1cc2cnccc2[nH]1)[C@@H]1CCc2c(Cl)nc(NCc3ccccc3)c(=O)n21 [Compound 105] came out at 4.60 to 5.00

Just so you know, measured pKi for Cc1cc(F)cc(CNc2nc(-c3ccccc3)c3n(c2=O)[C@H](C(=O)NCc2ccc(N)nc2C)CC3)c1 [Compound 217, trifluoroacetate] came out at < 4.60

Just so you know, measured pKi for Cc1ccc(CNc2ncc3n(c2=O)[C@H](C(=O)NCc2ccc(N)nc2C)CC3)cc1C [Compound 38] came out at > 6.30

###

pKi: −log10 of the molar value. Counter-ions that a name gives are not always drawn.
Could you please report measured pKi for the items listed next?

Field pKi (system: human α-thrombin (Homo sapiens)) for entry `Cc1cccc(CNc2ncc3n(c2=O)[C@H](C(=O)N[C@H](C)c2ccc(N)nc2)CC3)c1` = 5.00 to 5.60

Field pKi (system: human α-thrombin (Homo sapiens)) for entry `O=C(NCc1cc2cnccc2[nH]1)[C@@H]1CCc2cnc(NCCc3ccccc3)c(=O)n21` = > 6.30

Field pKi (system: human α-thrombin (Homo sapiens)) for entry `Cc1cc(CNc2ncc3n(c2=O)[C@H](C(=O)NCc2ccc(N)nc2C)CC3)cc(C(F)(F)F)c1` = > 6.30

Field pKi (system: human α-thrombin (Homo sapiens)) for entry CC(C)c1cccc(CNc2ncc3n(c2=O)[C@H](C(=O)NCc2ccc(N)nc2)CC3)c1 [Compound 207, trifluoroacetate] = > 6.30

Field pKi (system: human α-thrombin (Homo sapiens)) for entry `CCC[C@@H](Nc1ncc2n(c1=O)[C@H](C(=O)NCc1cc3c(s1)CNC3)CC2)c1ccccc1` = > 6.30

Field pKi (system: human α-thrombin (Homo sapiens)) for entry Cc1cccc(C2(Nc3nc(Cl)c4n(c3=O)[C@H](C(=O)NCc3cc5cnccc5[nH]3)CC4)CC2)c1 [Compound 110, trifluoroacetate] = 5.00 to 5.60

Field pKi (system: human α-thrombin (Homo sapiens)) for entry `Cc1ccc(C)c(CNc2ncc3n(c2=O)[C@H](C(=O)NCc2ccc(N)nc2C)CC3)c1` = > 6.30

###

Could you please report measured Ki for the items listed next?
target: MASP-2 (CCP1-CCP2-SP) (Homo sapiens, UniProt O00187)
Construct: 15 μL of Enzyme MASP-2 (CCP1-CCP2-SP) in Assay Buffer
Sequence (O00187 445-686 limits assumed): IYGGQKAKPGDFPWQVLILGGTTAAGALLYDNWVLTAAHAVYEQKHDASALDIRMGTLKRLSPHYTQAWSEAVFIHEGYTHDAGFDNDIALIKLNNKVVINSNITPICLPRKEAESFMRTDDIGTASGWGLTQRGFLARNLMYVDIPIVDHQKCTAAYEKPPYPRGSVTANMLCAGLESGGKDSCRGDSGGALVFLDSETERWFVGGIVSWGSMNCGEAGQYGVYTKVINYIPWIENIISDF
Sequence (O00187 287-444 partner limits assumed): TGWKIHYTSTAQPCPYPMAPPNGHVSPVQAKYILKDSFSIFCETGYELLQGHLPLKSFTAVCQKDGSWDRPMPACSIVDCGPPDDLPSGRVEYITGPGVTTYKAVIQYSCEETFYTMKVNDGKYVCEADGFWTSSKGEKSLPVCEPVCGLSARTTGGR
assayName: Enzymatic assay for MASP-2 inhibitory activity (fluorogenic substrate)
Assay type: biochemical
Description: The MASP-2 assay utilizes a fluorogenic substrate, based on the cleavage site for its natural substrate C2. The assay was run at room temperature in an assay buffer containing 20 mM HEPES, pH 7.4, 140 mM NaCl and 0.1% Tween 20. […] The MASP-2 assay protocol was carried out as follows. […] After 20 min at room temperature, 15 μL of a stop solution (0.1 M acetic acid) was added, the sample was mixed, and the plates were read on a SpectraMax i3x Microplate Reader with the data exported as an Excel file. […]
Counter-ions that a name gives are not always drawn.

Just so you know, measured Ki for Nc1nc(Cl)c2n(c1=O)[C@H](C(=O)NCc1cc3cnccc3[nH]1)CC21CCCC1 [Compound 232, trifluoroacetate] came out at 500 to 2500 nM

Just so you know, measured Ki for Cc1cc(F)cc(CNc2nc(Cl)c3n(c2=O)[C@H](C(=O)NCc2cnc4ccccn24)CC3)c1 [Compound 165, trifluoroacetate] came out at 10000 to 25000 nM

Just so you know, measured Ki for `Cc1cc(C)cc(CNc2ncc3n(c2=O)[C@H](C(=O)NCc2cnc(N)c(Cl)c2)CC3)c1` came out at < 500 nM

Just so you know, measured Ki for Nc1nc2cc(CNC(=O)[C@@H]3CCc4c(Cl)nc(NCc5ccccc5)c(=O)n43)ccc2[nH]1 [Compound 29, trifluoroacetate] came out at < 500 nM

Just so you know, measured Ki for `O=C(NCc1cc2cnccc2[nH]1)[C@@H]1C[C@H](Cc2ccccc2)c2cnc(NC3CCC3)c(=O)n21` came out at < 500 nM

Just so you know, measured Ki for `Cc1cc(C)cc(CNc2ncc3n(c2=O)[C@H](C(=O)NCc2cnc4c(c2)CNC4)CC3)c1` came out at < 500 nM

Just so you know, measured Ki for Cc1ccc(C(F)(F)F)cc1CNc1ncc2n(c1=O)[C@H](C(=O)N[C@H](C)c1ccc(N)nc1)CC2 [Compound 197, trifluoroacetate] came out at < 500 nM

###

target: human α-thrombin (Homo sapiens, UniProt P00734)
pKi: −log10 of the molar value.
Could you please report measured pKi for the items listed next?

Just so you know, measured pKi for `COc1cc(C)cc(CNc2ncc3n(c2=O)[C@H](C(=O)NCc2cc4c(s2)CNC4)CC3)c1` came out at > 6.30

Just so you know, measured pKi for `Cc1cc2[nH]c(CNC(=O)[C@@H]3CCc4cnc(NCc5cc(F)ccc5C)c(=O)n43)cc2cn1` came out at 4.60 to 5.00

Just so you know, measured pKi for `Cc1cccc(CNc2ncc3n(c2=O)[C@H](C(=O)NCc2ccc(N)nc2C)CC3)c1F` came out at > 6.30

Just so you know, measured pKi for `Cc1ccccc1[C@H](C)Nc1ncc2n(c1=O)[C@H](C(=O)NCc1cc3c(s1)CNC3)CC2` came out at 5.60 to 6.30

###

pKi: −log10 of the molar value. Structures can show the parent of a compound that is named as a salt.
propertyName: pKi

Field pKi (system: human α-thrombin (Homo sapiens, UniProt P00734)) for entry `Cc1cc(C)cc(CNc2ncc3n(c2=O)[C@H](C(=O)NCc2cc4c(s2)CNC4)CC32CC2)c1` = 5.60 to 6.30

Field pKi (system: human α-thrombin (Homo sapiens, UniProt P00734)) for entry Cc1cc(F)cc(CNc2nc(C#N)c3n(c2=O)[C@H](C(=O)NCc2ccc(N)nc2C)CC3)c1 [Compound 222, trifluoroacetate] = 5.00 to 5.60

Field pKi (system: human α-thrombin (Homo sapiens, UniProt P00734)) for entry Cc1ccc(C)c(CNc2ncc3n(c2=O)[C@H](C(=O)N[C@H](C)c2ccc(N)nc2)CC3)c1 [Compound 193, trifluoroacetate] = 5.00 to 5.60

Field pKi (system: human α-thrombin (Homo sapiens, UniProt P00734)) for entry Cc1cc(F)cc(CNc2nc(-c3cnn(C(F)F)c3)c3n(c2=O)[C@H](C(=O)NCc2cc4c(s2)CNC4)CC3)c1 [Compound 219, trifluoroacetate] = < 4.60

Field pKi (system: human α-thrombin (Homo sapiens, UniProt P00734)) for entry `CCc1cccc(CNc2ncc3n(c2=O)[C@H](C(=O)NCc2cc4cnccc4[nH]2)CC3)c1` = > 6.30

Field pKi (system: human α-thrombin (Homo sapiens, UniProt P00734)) for entry `O=C(NCc1cc2c(s1)CNC2)[C@@H]1CCc2cnc(N[C@H]3CCc4ccc(-c5ccccc5)cc43)c(=O)n21` = > 6.30

Field pKi (system: human α-thrombin (Homo sapiens, UniProt P00734)) for entry COc1ccnc(CNC(=O)[C@@H]2CCc3cnc(NCc4cc(C)cc(F)c4)c(=O)n32)c1F [Compound 190, trifluoroacetate] = 5.00 to 5.60

Field pKi (system: human α-thrombin (Homo sapiens, UniProt P00734)) for entry Cc1cc(F)cc(CNc2ncc3n(c2=O)[C@H](C(=O)NCc2cnc(N)c(C)c2)CC3)c1 [Compound 213, trifluoroacetate] = > 6.30

Field pKi (system: human α-thrombin (Homo sapiens, UniProt P00734)) for entry Cc1ccc(F)cc1CNc1ncc2n(c1=O)[C@H](C(=O)N[C@H](C)c1ccc(N)nc1)CC2 [Compound 196, trifluoroacetate] = 4.60 to 5.00

Field pKi (system: human α-thrombin (Homo sapiens, UniProt P00734)) for entry `O=C(NCc1cc2cnccc2[nH]1)[C@@H]1CCc2c(Cl)nc(NCC3CCCCC3)c(=O)n21` = < 4.60

Field pKi (system: human α-thrombin (Homo sapiens, UniProt P00734)) for entry O=C(NCc1cc2c(s1)CNC2)[C@@H]1CC2(CC2)c2cnc(NCc3ccccc3)c(=O)n21 [Compound 127, trifluoroacetate] = 5.00 to 5.60

Field pKi (system: human α-thrombin (Homo sapiens, UniProt P00734)) for entry `O=C(NCc1cc2cnccc2[nH]1)[C@@H]1CCc2c(Cl)nc(NCc3cccc(CO)c3)c(=O)n21` = 5.00 to 5.60

Field pKi (system: human α-thrombin (Homo sapiens, UniProt P00734)) for entry `N=C(N)c1ccc(CNC(=O)[C@@H]2CCc3c(Cl)nc(NCCc4ccccc4)c(=O)n32)cc1` = 5.00 to 5.60

Field pKi (system: human α-thrombin (Homo sapiens, UniProt P00734)) for entry O=C(NCc1cc2c(s1)CNC2)[C@@H]1CCc2cnc(NC3(c4ccccc4)CCC3)c(=O)n21 [Compound 261, trifluoroacetate] = > 6.30
